For each record, write down the corresponding TGI.
- Test system: HCT-116 colon
- assay info: NCI tumour cell line growth inhibition, 48 h
One number for each entry, in µM.

Example entries begin here.
{"smiles data": "CC/C(=N\\Nc1nc2ccccc2n1C)c1ccccn1", "target under test": "HCT-116 colon", "measurement units": "µM", "TGI": 11.8}
{"smiles data": "CCOc1ccc(Cc2nccc3cc(OCC)c(OCC)cc23)cc1OCC", "target under test": "HCT-116 colon", "measurement units": "µM", "TGI": 13.4}
{"smiles data": "COc1ccc2c(=O)c([Se]c3coc4cc(OC)ccc4c3=O)coc2c1", "target under test": "HCT-116 colon", "measurement units": "µM", "TGI": 44.1}

Request: // lookup TGI for "COC(=O)[C@]12CC[C@@H](C)[C@H](C)[C@@H]1C1=CC[C@@H]3[C@@]4(C)C[C@@H](OC(=O)c5ccco5)[C@H](O)[C@@](C)(CO)[C@@H]4[C@H](O)C[C@@]3(C)[C@]1(C)CC2"
Result: 3.41

Data origin, for the record: PubChem BioAssay (NCI)
